Recorded values, source the supplement of paper PMC11061612.

Test system: LAMA-84 (Chronic Myelogenous Leukemia)
protocol summary: combination Emax (second highest fraction inhibited in the dose matrix, 72 h); higher = more inhibition; extreme values may be limits of the assay
measurement name: combination Emax
Could you respond with only the numeric value?

# input Item under review: O=C(c1cc(Cc2n[nH]c(=O)c3ccccc23)ccc1F)N1CCN(C(=O)C2CC2)CC1 [Olaparib] + CC1(C)CCC(CN2CCN(c3ccc(C(=O)NS(=O)(=O)c4ccc(NCC5CCOCC5)c([N+](=O)[O-])c4)c(Oc4cnc5[nH]ccc5c4)c3)CC2)=C(c2ccc(Cl)cc2)C1 [Venetoclax] (first compound max 10 µM, 7x7, partner max 1 µM) . Reported combination Emax?
# output 0.211

# input Item under review: C=CCn1c(=O)c2cnc(Nc3ccc(N4CCN(C)CC4)cc3)nc2n1-c1cccc(C(C)(C)O)n1 [AZD1775] + Nc1ccn([C@@H]2O[C@H](CO)[C@@H](O)C2(F)F)c(=O)n1 [Gemcitabine] (first compound max 1 µM, partner max 0.3 µM) . Reported combination Emax?
# output 0.963

# input Item under review: Cc1cc2ncnn2cc1Nc1ncc2c(n1)n(C1CCOCC1)c(=O)n2C [AZD7648] + C[C@@H]1COCCN1C2=NC(=NC(=C2)C3(CC3)[S@](=N)(=O)C)C4=C5C=CNC5=NC=C4 [AZD6738] (first compound max 10 µM, 7x7, partner max 10 µM) . Reported combination Emax?
# output 0.947

# input Item under review: CC1(C)CCC(CN2CCN(c3ccc(C(=O)NS(=O)(=O)c4ccc(NCC5CCOCC5)c([N+](=O)[O-])c4)c(Oc4cnc5[nH]ccc5c4)c3)CC2)=C(c2ccc(Cl)cc2)C1 [Venetoclax] + Cc1cc2ncnn2cc1Nc1ncc2c(n1)n(C1CCOCC1)c(=O)n2C [AZD7648] (first compound max 1 µM, 7x7, partner max 10 µM) . Reported combination Emax?
# output 0.299

* * *

System: KYSE-70 (Esophageal Squamous Cell Carcinoma);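 note: after 72 h of two-drug dosing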
protocol summary: Bliss excess, mean over the matrix (fraction); higher = more synergy
We begin with a simple list: items and their reported Bliss excess.
Could you respond with only the numeric value?

Worked examples follow.
CC1(C)CCC(CN2CCN(c3ccc(C(=O)NS(=O)(=O)c4ccc(NCC5CCOCC5)c([N+](=O)[O-])c4)c(Oc4cnc5[nH]ccc5c4)c3)CC2)=C(c2ccc(Cl)cc2)C1 [Venetoclax] + CS(=O)(=O)CCNCc1ccc(-c2ccc3ncnc(Nc4ccc(OCc5cccc(F)c5)c(Cl)c4)c3c2)o1 [Lapatinib] (first compound max 1 µM, 7x7, partner max 10 µM)    -0.0418
Cc1c2c(nn1C)CSCc1cc(n(C)n1)CSc1cc(c3ccccc3c1)OCCCc1c(C(=O)O)n(C)c3c-2c(Cl)ccc13 [AZD5991] + Nc1ccn([C@@H]2O[C@H](CO)[C@@H](O)C2(F)F)c(=O)n1 [Gemcitabine] (first compound max 1 µM, 7x7, partner max 0.3 µM)    -0.0423
O=C(c1cc(Cc2n[nH]c(=O)c3ccccc23)ccc1F)N1CCN(C(=O)C2CC2)CC1 [Olaparib] + COc1nnc2ccc(N3CCC(c4ccc(OCCN5CCN(C)C(=O)[C@H]5C)cc4)CC3)nn12 [AZD5153] (first compound max 10 µM, 7x7, partner max 1 µM)    -0.0305
CCc1c2c(nc3ccc(O)cc13)-c1cc3c(c(=O)n1C2)COC(=O)[C@]3(O)CC [SN-38] + O=C(c1cc(Cc2n[nH]c(=O)c3ccccc23)ccc1F)N1CCN(C(=O)C2CC2)CC1 [Olaparib] (first compound max 0.3 µM, 7x7, partner max 10 µM)    0.0423
Cc1c2c(nn1C)CSCc1cc(n(C)n1)CSc1cc(c3ccccc3c1)OCCCc1c(C(=O)O)n(C)c3c-2c(Cl)ccc13 [AZD5991] + CS(=O)(=O)CCNCc1ccc(-c2ccc3ncnc(Nc4ccc(OCc5cccc(F)c5)c(Cl)c4)c3c2)o1 [Lapatinib] (first compound max 1 µM, 7x7, partner max 10 µM)    -0.0329

# input Item under review: C[C@@H](Nc1cc(F)cc(F)c1)c1cc(C(=O)N(C)C)cc2c(=O)cc(N3CCOCC3)oc12 [AZD8186] + C1CN(CCC1(C(=O)N[C@@H](CCO)C2=CC=C(C=C2)Cl)N)C3=NC=NC4=C3C=CN4 [AZD5363] (first compound max 10 µM, 7x7, partner max 10 µM) . Reported Bliss excess?
# output -0.0493

# input Item under review: COc1cccc(OCCCN)c1-c1cc(Nc2cnc(C#N)cn2)n[nH]1 [Prexasertib] + CN(C)CCCOc1ccc(-c2ccc3ncc4c(c3c2)n(C2CCOCC2)c(=O)n4C)cn1 [AZD0156] (first compound max 1 µM, 7x7, partner max 1 µM) . Reported Bliss excess?
# output -0.0233

* * *

We begin with a simple list: items and their reported combination Emax.
Tested on: RT4 (Bladder Carcinoma)
protocol summary: combination Emax (second highest fraction inhibited in the dose matrix, 72 h); higher = more inhibition; extreme values may be limits of the assay
Could you respond with only the numeric value?

CN(CCO)CC[C@H](CSc1ccccc1)Nc1ccc(S(=O)(=O)NC(=O)c2ccc(N3CCC([C@@H](O)c4ccccc4-c4ccc(Cl)cc4)CC3)cc2)cc1S(=O)(=O)C(F)(F)F [AZD4320] + Cc1cc2ncnn2cc1Nc1ncc2c(n1)n(C1CCOCC1)c(=O)n2C [AZD7648] (first compound max 1 µM, 7x7, partner max 10 µM)    0.355

Please find the next compound below.
# input Item under review: CN(C)CCCOc1ccc(-c2ccc3ncc4c(c3c2)n(C2CCOCC2)c(=O)n4C)cn1 [AZD0156] + O=C(c1cc(Cc2n[nH]c(=O)c3ccccc23)ccc1F)N1CCN(C(=O)C2CC2)CC1 [Olaparib] (first compound max 3 µM, partner max 3 µM) . Reported combination Emax?
# output 0.174

* * *

We begin with a simple list: items and their reported combination Emax.
Test system: NKM-1 (Acute Myeloid Leukemia)
protocol summary: combination Emax (second highest fraction inhibited in the dose matrix, 72 h); higher = more inhibition; extreme values may be limits of the assay

C[C@@H]1COCCN1c1cc(C2([S@](C)(=N)=O)CC2)nc(-c2ccnc3[nH]ccc23)n1 [AZD6738] + Nc1ccn([C@@H]2O[C@H](CO)[C@@H](O)C2(F)F)c(=O)n1 [Gemcitabine] (first compound max 10 µM, 7x7, partner max 0.3 µM)    1

# input Please state recorded combination Emax (tested on NKM-1 (Acute Myeloid Leukemia)) of O=C(c1cc(Cc2n[nH]c(=O)c3ccccc23)ccc1F)N1CCN(C(=O)C2CC2)CC1 [Olaparib] + CC1(C)CCC(CN2CCN(c3ccc(C(=O)NS(=O)(=O)c4ccc(NCC5CCOCC5)c([N+](=O)[O-])c4)c(Oc4cnc5[nH]ccc5c4)c3)CC2)=C(c2ccc(Cl)cc2)C1 [Venetoclax] (first compound max 10 µM, 7x7, partner max 1 µM)
# output 0.976

# input Please state recorded combination Emax (tested on NKM-1 (Acute Myeloid Leukemia)) of CC(=O)Nc1cccc(-n2c(=O)n(C3CC3)c(=O)c3c(Nc4ccc(I)cc4F)n(C)c(=O)c(C)c32)c1 [Trametinib] + Cc1nc(-c2cn3c(n2)-c2ccc(-c4cnn(C(C)(C)C(N)=O)c4)cc2OCC3)n(C(C)C)n1 [Taselisib] (first compound max 1 µM, 7x7, partner max 10 µM)
# output 1

# input Please state recorded combination Emax (tested on NKM-1 (Acute Myeloid Leukemia)) of CN(CCO)CC[C@H](CSc1ccccc1)Nc1ccc(S(=O)(=O)NC(=O)c2ccc(N3CCC([C@@H](O)c4ccccc4-c4ccc(Cl)cc4)CC3)cc2)cc1S(=O)(=O)C(F)(F)F [AZD4320] + C[C@@H]1COCCN1C2=NC(=NC(=C2)C3(CC3)[S@](=N)(=O)C)C4=C5C=CNC5=NC=C4 [AZD6738] (first compound max 1 µM, 7x7, partner max 10 µM)
# output 1

# input Please state recorded combination Emax (tested on NKM-1 (Acute Myeloid Leukemia)) of CN(CCO)CC[C@H](CSc1ccccc1)Nc1ccc(S(=O)(=O)NC(=O)c2ccc(N3CCC([C@@H](O)c4ccccc4-c4ccc(Cl)cc4)CC3)cc2)cc1S(=O)(=O)C(F)(F)F [AZD4320] + C=CCn1c(=O)c2cnc(Nc3ccc(N4CCN(C)CC4)cc3)nc2n1-c1cccc(C(C)(C)O)n1 [AZD1775] (first compound max 1 µM, partner max 1 µM)
# output 1

# input Please state recorded combination Emax (tested on NKM-1 (Acute Myeloid Leukemia)) of N#Cc1cnc(Nc2cc(NC[C@H]3CNCCO3)c(C(F)(F)F)cn2)cn1 [SRA737] + Nc1ccn([C@@H]2O[C@H](CO)[C@@H](O)C2(F)F)c(=O)n1 [Gemcitabine] (first compound max 10 µM, 7x7, partner max 0.3 µM)
# output 1

* * *

System: SNU-175 (Colorectal Carcinoma)
protocol summary: combination Emax (second highest fraction inhibited in the dose matrix, 72 h); higher = more inhibition; extreme values may be limits of the assay
We begin with a simple list: items and their reported combination Emax.
Could you respond with only the numeric value?

COc1nnc2ccc(N3CCC(c4ccc(OCCN5CCN(C)C(=O)[C@H]5C)cc4)CC3)nn12 [AZD5153] + C[C@@H]1COCCN1C2=NC(=NC(=C2)C3(CC3)[S@](=N)(=O)C)C4=C5C=CNC5=NC=C4 [AZD6738] (first compound max 1 µM, 7x7, partner max 10 µM)    0.883
COc1cccc(OCCCN)c1-c1cc(Nc2cnc(C#N)cn2)n[nH]1 [Prexasertib] + Cc1cc2ncnn2cc1Nc1ncc2c(n1)n(C1CCOCC1)c(=O)n2C [AZD7648] (first compound max 1 µM, 7x7, partner max 10 µM)    0.586
COc1cccc(OCCCN)c1-c1cc(Nc2cnc(C#N)cn2)n[nH]1 [Prexasertib] + C=CCn1c(=O)c2cnc(Nc3ccc(N4CCN(C)CC4)cc3)nc2n1-c1cccc(C(C)(C)O)n1 [AZD1775] (first compound max 1 µM, partner max 1 µM)    0.744
CN(CCO)CC[C@H](CSc1ccccc1)Nc1ccc(S(=O)(=O)NC(=O)c2ccc(N3CCC([C@@H](O)c4ccccc4-c4ccc(Cl)cc4)CC3)cc2)cc1S(=O)(=O)C(F)(F)F [AZD4320] + CCN(CCO)CCCOc1ccc2c(Nc3cc(CC(=O)Nc4cccc(F)c4)[nH]n3)ncnc2c1 [AZD2811] (first compound max 1 µM, 7x7, partner max 1 µM)    0.996
Cc1cc2ncnn2cc1Nc1ncc2c(n1)n(C1CCOCC1)c(=O)n2C [AZD7648] + O=C(c1cc(Cc2n[nH]c(=O)c3ccccc23)ccc1F)N1CCN(C(=O)C2CC2)CC1 [Olaparib] (first compound max 10 µM, 7x7, partner max 10 µM)    0.0944
COc1nnc2ccc(N3CCC(c4ccc(OCCN5CCN(C)C(=O)[C@H]5C)cc4)CC3)nn12 [AZD5153] + Cc1c2c(nn1C)CSCc1cc(n(C)n1)CSc1cc(c3ccccc3c1)OCCCc1c(C(=O)O)n(C)c3c-2c(Cl)ccc13 [AZD5991] (first compound max 1 µM, 7x7, partner max 1 µM)    0.931

Please find the next compound below.
# input Item under review: NC1(C(=O)N[C@@H](CCO)c2ccc(Cl)cc2)CCN(c2ncnc3[nH]ccc23)CC1 [Capivasertib] + CC(=O)c1c(C)c2cnc(Nc3ccc(N4CCNCC4)cn3)nc2n(C2CCCC2)c1=O [Palbociclib] (first compound max 10 µM, 7x7, partner max 10 µM) . Reported combination Emax?
# output 0.634
